Test: Drug degradation in buffer at 37 degC at pH 1.2 after 1 hr
RESULT TYPE: metabolised at 1 h (%)

Given "CCCC(=O)n1ncc2c(O)ncnc21" , state its recorded metabolised at 1 h.
27

[A] CCC(=O)n1ncc2c(O)ncnc21
[B] CC(=O)n1ncc2c(O)ncnc21
Compare the recorded metabolised at 1 h of A and B ; state which is larger. Give the label under which the chosen entry appears.
A

----------
Assay: Stability of the compound in 0.1 M SDS-0.01 M 7.5% (v/v) 1-propanol-NaH2PO4/H3PO4 assessed as compound recovery at 6 x 10^-8 mol/ml by micellar liquid chromatography
Format: physicochemical
RESULT TYPE: Drug recovery (%)

If you can, please state the reported Drug recovery value of "CC(=O)n1ncc2c(O)ncnc21" .
102.42

# Drug recovery lookup, item "CCCC(=O)n1ncc2c(O)ncnc21"
101.42

What value of Drug recovery has been recorded for this entry: "Oc1ncnc2[nH]ncc12"
98.55

I'd like to know its Drug recovery. The compound in question is "CCCc1nc2n[nH]cc2c(=O)[nH]1"
99.59

Endpoint output: Drug recovery of "CCC(=O)n1ncc2c(O)ncnc21" . Value?
103.09

Given "Cc1nc(O)c2c[nH]nc2n1" , state its recorded Drug recovery.
102.72

Need Drug recovery of "CCc1nc(O)c2c[nH]nc2n1" , thanks.
97.07

----------
Assay: Intrinsic solubility of the compound in standard phosphate buffer at pH 6.8 at 25 degC after 24 hrs by shake-flask method
Format: physicochemical
Conditions: read-out: Intrinsic_solubility
RESULT TYPE: solubility thermodynamic at 24 h (µg/mL)

Below: 2 molecules and their reported solubility thermodynamic at 24 h.
Param item = "Oc1ncnc2[nH]ncc12" ; retrieve measured solubility thermodynamic at 24 h.
490

I would be grateful if you could share the reported solubility thermodynamic at 24 h for "CCCc1nc2n[nH]cc2c(=O)[nH]1" .
2070

[a] Cc1nc(O)c2c[nH]nc2n1
[b] CCc1nc(O)c2c[nH]nc2n1
Quick one: lower solubility thermodynamic at 24 h, a or b ? Please identify the chosen entry by its label.
b
(b: 710 µg/mL, a: 1480 µg/mL)

----------
Assay: Octanol-water partition coefficient, log P of the compound by RP-HPLC analysis
Assay type: physicochemical
RESULT TYPE: logP

The examples below pair each entry with its known result.
Item "CCCC(=O)n1ncc2c(O)ncnc21" has what recorded logP?
1.99

Any idea what its logP is? The compound is "CCc1nc(O)c2c[nH]nc2n1"
0.52

Quick check: logP of "CCCc1nc2n[nH]cc2c(=O)[nH]1" ?
1.14

[P] CCC(=O)n1ncc2c(O)ncnc21
[Q] CC(=O)n1ncc2c(O)ncnc21
[R] Cc1nc(O)c2c[nH]nc2n1
Arrange items by their logP values in increasing order. Enter labels, ranked according to the request.
R, Q, P

----------
Assay: Drug degradation in simulated gastric fluid at 37 degC after 1 hr
Format: physicochemical
Settings: read-out: Drug degradation
RESULT TYPE: degraded at 1 h (%)

I would be grateful if you could share the reported degraded at 1 h for "CCC(=O)n1ncc2c(O)ncnc21" .
32

Can you look up the measured degraded at 1 h of "CC(=O)n1ncc2c(O)ncnc21" for me?
18.9

Reported degraded at 1 h, compound "CCCC(=O)n1ncc2c(O)ncnc21" : ____
26.5
